tested_target: Glutamate receptor ionotropic, NMDA 1 (Rattus norvegicus)
pKi: −log10 of the molar value.
assay_readout: pKi

>>> observed_value("O=C(O)[C@@H]1C[C@H](CP(=O)(O)O)CCN1")
"< 5.00"
